- assay summary: Mycobacterium tuberculosis growth inhibition, primary screen (AID 1259343)
- conditions: at 10 µM, active compounds read high
Among all 6,200 compounds or so, about 2,900 (47%) were called active. So high a share suggests a set chosen from earlier hits. Some of the results follow.
Item-by-item account of inhibition
readout label: inhibition (%)

In [3]: df
Out[3]:
                                    compound  readout_label  measurement_unit  result_number
 0  Cc1nc(NCCNC(=O)Nc2ccc(F)c(Cl)c2)cc(N2CCCC2)n1     inhibition                 %           58.8
 1  CCOc1ccc(NC(=O)N2CCC(CCc3ccc(C(F)(F)F)cc3)CC2)cc1     inhibition                 %           78.8
 2  O=C(COc1cccc(Cl)c1)N1CCC(CCc2ccc3c(c2)OCO3)CC1     inhibition                 %           43.2
 3             Fc1ccc(F)c(NC(=S)NC2CCCCC2)c1     inhibition                 %             42
 4                S=C(Nc1cccc(I)c1)NC1CCCCC1     inhibition                 %           93.2
 5   N#CC1CCN(C(=O)Nc2ccc(OCC3CCCCC3)cc2)CC1     inhibition                 %             40
 6  Cc1ccc(CCC2CCN(C(C)C(=O)Nc3ccc(S(N)(=O)=O)cc3)CC2)cc1 (configuration not stated)     inhibition                 %           3.86
 7  CCOc1ccc(NC(=O)N2CCC(Cc3ccc4c(c3)OCO4)CC2)cc1     inhibition                 %             64
 8       Cc1ccc(-c2ncc(C(=O)NC(C)C)s2)c(C)c1     inhibition                 %           61.8
 9   O=[N+]([O-])c1cc(NC(=S)NC2CCCCC2)ccc1Cl     inhibition                 %           99.3
10        COc1ccc(C)cc1-c1csc(NC(=O)C(C)C)n1     inhibition                 %           11.6
11            Fc1ccc(NC(=S)NC2CCCCC2)c(F)c1F     inhibition                 %           18.1

* * *

Item-by-item account of inhibition
- assay summary: Mycobacterium tuberculosis growth inhibition, primary screen (AID 1259343)
- conditions: at 10 µM, active compounds read high
Among all 6,200 compounds or so, about 2,900 (47%) were called active. So high a share suggests a set chosen from earlier hits. The list shows a part of the results.
readout label: inhibition (%)

In [3]: df
Out[3]:
                                   molecule  readout_label  result_number
0  COc1ccc(F)cc1CN1CCN(c2ncnc3sc4c(c23)CCCC4)CC1     inhibition             60
1  CNC(=O)C(C#N)C(=O)c1sc(-c2ccc(Cl)s2)nc1C (stereo unspecified)     inhibition           54.5
2  Fc1ccccc1CN1CCCC2(CCN(C3CCN(CCc4ccccc4)CC3)C2)C1 (stereo unspecified)     inhibition           13.5
3  OCC1CCCN(c2ncnc3sc4c(c23)CCCC4)C1 (stereo unspecified)     inhibition           20.6
4  Cc1c(C2CCN(CCc3ccccc3)CC2)noc1-c1ccc(Cl)cc1     inhibition           88.1
5  COc1cccc(OCCN2CCN(c3ncnc4sc5c(c34)CCCC5)CC2)c1     inhibition           36.6
